TARGET ENTITY: Ubiquitin carboxyl-terminal hydrolase 2 (Homo sapiens)
ASSAY METHOD TEXT: qHTS for Inhibitors of Ubiquitin-specific Protease USP2a Using CHOP2 as the Reporter: K484 Substrate (AID 652173);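 further: cleavage of internally quenched K48 di-ubiquitin substrate measured as rising fluorescence over time; nearly all actives have a fitted effect of over 70% in size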
PARTICULARS: USP2 cleavage of DiUb K48 IQF substrate, fluorescence; series mostly up to 57.5 µM
Inconclusive results are not listed. The source made the active and inactive calls. The call rests on the fitted dose curve; in most records, active means well fitted inhibition curve with a large enough effect; inconclusive means small, poorly fitted or top-dose-only effect; inactive means flat fitted curve, though single readings scatter.
Respond only with the outcome that fits, drawn from active, inactive

{"MOLECULE": "Cc1ccc(S(=O)(=O)NCCC(=O)Nc2nc(-c3ccccc3)cs2)cc1", "CLASSIFICATION": "active"}
{"MOLECULE": "N#Cc1cccc(S(=O)(=O)Nc2cnccc2C(=O)Nc2nc(-c3ccccc3)cs2)c1", "CLASSIFICATION": "active"}
{"MOLECULE": "CC(C)C1CCC(C(=O)Nc2ccc(S(=O)(=O)Nc3nccs3)cc2)CC1 (stereo not given)", "CLASSIFICATION": "active"}
{"MOLECULE": "Cc1ccc(S(=O)(=O)Nc2ccccc2C(=O)Nc2nc(-c3ccccc3)c(C)s2)cc1", "CLASSIFICATION": "active"}
{"MOLECULE": "Cc1ccc(S(=O)(=O)Nc2cccnc2C(=O)Nc2nc(-c3ccccc3)cs2)cc1", "CLASSIFICATION": "active"}
{"MOLECULE": "Cc1ccc(S(=O)(=O)Nc2ccc(C(=O)Nc3nc(-c4ccc(Cl)cc4)cs3)cc2)cc1", "CLASSIFICATION": "active"}

Lookup: How did this test come out for "Cc1cccc2c(C(=O)O)cc(Cl)nc12" ?
Found: inactive

Lookup: Would you mind telling me which call this test gave "O=C(Nc1ccc(S(=O)(=O)Nc2nccs2)cc1)c1cccnc1" ?
Found: inactive

Lookup: Called result for "Cc1ccc(-c2cc(C(=O)N3CCCCC3)c3ccccc3n2)cc1C"
Found: active

Lookup: Write down the call the test reported for this molecule. Item: "Cc1cccc(NC(=O)c2cc(-c3ccc(C)c(C)c3)nc3ccccc23)c1"
Found: inactive

====

Tested on: CP325
ASSAY METHOD TEXT: qHTS profiling for inhibitors of Plasmodium falciparum proliferation (AID 504749); further: nearly all actives have a fitted effect of over 60% in size; further: potency means the concentration at half of the fitted maximal effect
PARTICULARS: P. falciparum in erythrocytes, SYBR Green DNA, 72 h; series mostly up to 28.7 µM
Records with an inconclusive call do not appear. Active and inactive are the calls of the source. Calls follow the shape of the dose curve; as a rule, active = well fitted inhibition curve with a large enough effect; inconclusive = small, poorly fitted or top-dose-only effect; inactive = flat fitted curve, though single readings scatter.
OUTCOME MEASURE: Potency

Look over these answered cases.
{"COMPOUND": "CC(/C=C1\\SC(=S)N(CC(=O)O)C1=O)=C\\c1ccccc1", "TARGET ENTITY": "CP325", "VALUE OBSERVED": "inactive"}
{"COMPOUND": "CN1C(=O)CCC1c1cccnc1 (stereo unspecified)", "TARGET ENTITY": "CP325", "VALUE OBSERVED": "inactive"}
{"COMPOUND": "CC(C)C[C@H]1C(=O)N2CCCC2[C@]2(O)O[C@](NC(=O)[C@@H]3C=C4c5cccc6[nH]c(Br)c(c56)C[C@H]4N(C)C3)(C(C)C)C(=O)N12 (stereo partly specified)", "TARGET ENTITY": "CP325", "VALUE OBSERVED": "9.53 µM (active)"}
{"COMPOUND": "CO[C@H]1/C=C/O[C@@]2(C)Oc3c(C)c(O)c4c(O)c(c(/C=N\\N5CCN(C6CCCC6)CC5)c(O)c4c3C2=O)NC(=O)/C(C)=C\\C=C\\[C@H](C)[C@H](O)[C@@H](C)[C@@H](O)[C@@H](C)[C@H](OC(C)=O)[C@@H]1C", "TARGET ENTITY": "CP325", "VALUE OBSERVED": "4.78 µM (active)"}

Please give Potency for each item listed below.
1. C[C@@H]1[C@H](O)[C@@H](C)/C=C/C=C/C=C/C=C/C=C/C=C/C=C/[C@H](O[C@@H]2O[C@H](C)[C@@H](O)[C@H](N)[C@@H]2O)C[C@@H]2O[C@](O)(C[C@@H](O)C[C@@H](O)[C@H](O)CC[C@@H](O)C[C@@H](O)CC(=O)O[C@H]1C)C[C@H](O)[C@H]2C(=O)O
2. C=C1/C(=C\C=C2/CCC[C@]3(C)[C@@H]([C@H](C)CCCC(C)(C)O)CC[C@@H]23)C[C@@H](O)C[C@@H]1O

Found:
["inactive", "inactive"]

====

TARGET ENTITY: Dual specificity protein kinase CLK4 (Homo sapiens) (UniProt Q9HAZ1)
Sequence (Q9HAZ1 whole entry, looked up): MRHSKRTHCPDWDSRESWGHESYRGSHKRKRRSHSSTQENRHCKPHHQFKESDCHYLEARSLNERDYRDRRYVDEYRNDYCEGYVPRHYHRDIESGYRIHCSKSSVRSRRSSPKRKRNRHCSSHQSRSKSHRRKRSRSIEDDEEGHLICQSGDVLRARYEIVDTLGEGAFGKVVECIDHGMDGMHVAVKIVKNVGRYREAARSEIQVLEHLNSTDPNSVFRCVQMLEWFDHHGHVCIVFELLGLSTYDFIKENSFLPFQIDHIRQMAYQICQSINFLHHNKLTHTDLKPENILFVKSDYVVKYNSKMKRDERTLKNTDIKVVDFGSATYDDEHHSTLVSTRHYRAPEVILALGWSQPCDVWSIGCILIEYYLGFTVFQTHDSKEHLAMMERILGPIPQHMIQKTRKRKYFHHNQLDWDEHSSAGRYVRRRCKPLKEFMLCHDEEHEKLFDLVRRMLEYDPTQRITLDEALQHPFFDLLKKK
ASSAY METHOD TEXT: qHTS Assay for Inhibitors of CDC-like Kinase 4 (Kinase-Glo Assay) (AID 1770); further: nearly all actives have a fitted effect of over 65% in size
PARTICULARS: recombinant Clk4, Kinase-Glo ATP depletion luminescence; series mostly up to 66.7 µM
Inconclusive results are not listed. Calls of active or inactive are those of the source. Calls follow the shape of the dose curve; as a rule, active = well fitted inhibition curve with a large enough effect; inconclusive = small, poorly fitted or top-dose-only effect; inactive = flat fitted curve, though single readings scatter.
Tick one outcome: TRUE (active), FALSE (inactive)

These recorded examples may help you get a feel for the data.
{"MOL SMILES": "COc1ccc(Oc2ncc3nc(C)c(=O)n(-c4ccccc4)c3n2)cc1", "TARGET ENTITY": "Dual specificity protein kinase CLK4 (Homo sapiens) (UniProt Q9HAZ1)", "CLASSIFICATION": "FALSE"}
{"MOL SMILES": "Cn1cc(-c2nc3cnc(N4CCNCC4)nc3n(C)c2=O)c2ccccc21", "TARGET ENTITY": "Dual specificity protein kinase CLK4 (Homo sapiens) (UniProt Q9HAZ1)", "CLASSIFICATION": "FALSE"}
{"MOL SMILES": "COCCNc1ncncc1-c1c(C)noc1C", "TARGET ENTITY": "Dual specificity protein kinase CLK4 (Homo sapiens) (UniProt Q9HAZ1)", "CLASSIFICATION": "FALSE"}
{"MOL SMILES": "CN(Cc1ccco1)c1ncnc2ccc(-c3ccccc3Cl)cc12", "TARGET ENTITY": "Dual specificity protein kinase CLK4 (Homo sapiens) (UniProt Q9HAZ1)", "CLASSIFICATION": "TRUE"}

Lookup: Assay outcome for "Cn1cc(-c2nc3cnc(Oc4ccccc4)nc3n(C)c2=O)c2ccccc21" : what was it?
Found: FALSE

Lookup: For "Cc1ccccc1-c1cncnc1NCc1ccccc1" , what call appears in the results of this test?
Found: FALSE

Lookup: Can you look up the reported call for "COc1ccc(Oc2ncc3nc(C)c(=O)n(Cc4cccc(OC)c4)c3n2)cc1" for me?
Found: FALSE

Lookup: For this compound, state the assay outcome: "COc1ncc2nc(-c3ccccc3)c(=O)n(-c3ccccc3)c2n1"
Found: FALSE

Lookup: Tell me the recorded outcome of this test for "COc1ccc(CNc2ccnc(-c3ccc4c(c3)OCO4)n2)c(OC)c1" .
Found: FALSE

Lookup: What did this assay record as the result for "COc1ccc(-n2c(=O)c(-c3ccccc3)nc3cnc(N4CCN(C)CC4)nc32)cc1" ?
Found: FALSE

Lookup: Check the results log: what was the call for "COCCn1c(=O)cnc2cnc(Oc3ccc(OC)cc3)nc21" ?
Found: FALSE

Lookup: Record lookup: outcome of this test for "COc1cccc(Cn2c(=O)cnc3cncnc32)c1" ?
Found: TRUE

Lookup: Test call for this compound, please: "CN(Cc1ccco1)c1ncncc1-c1ccccc1Cl"
Found: FALSE

Lookup: For this compound, state the assay outcome: "CN(C)c1ccc(-c2cc(Nc3ccc(F)cc3)ncn2)cc1"
Found: TRUE

Lookup: Which outcome did this test record for the compound "COc1cccc(Cn2c(=O)c(-c3ccc(F)cc3)nc3cnc(N(C)C)nc32)c1" ?
Found: FALSE

Lookup: Test call, this compound: "COc1ccc(Oc2ncc3nc(-c4cccs4)c(=O)n(CCC#N)c3n2)cc1"
Found: FALSE

Lookup: Please state the recorded outcome for this compound: "CN1CCN(c2ncc3ncc(=O)n(CCC#N)c3n2)CC1"
Found: FALSE

====

ASSAY METHOD TEXT: qHTS Assay for Lipid Storage Modulators (AID 1519)
PARTICULARS: Drosophila S3 cells, BODIPY lipid droplet/cell ratio, laser cytometry; measured here: lipid channel max response; cells loaded with oleic acid
Inconclusive results are not listed.
Provide the recorded max response for the entries that follow.
# output: number + unit

{"COMPOUND": "COCC(=O)N1CCC2(CC1)CN(Cc1cc(C(F)(F)F)cc(C(F)(F)F)c1)C2", "OUTCOME MEASURE": "max response", "VALUE OBSERVED": "17.9%"}

Go through the items and report each one's max response.
1. Cn1c(=O)c(CCc2ccccc2)nc2cnc(OCc3ccccc3)nc21
2. CN1CCN(c2ncc3nc(-c4cc(F)cc(F)c4)c(=O)n(C4CC4)c3n2)CC1

Found:
1: 15.4%; 2: 12.5%

====

ASSAY METHOD TEXT: qHTS Assay for Lipid Storage Modulators (AID 1519)
PARTICULARS: Drosophila S3 cells, BODIPY lipid droplet/cell ratio, laser cytometry; measured here: lipid channel max response; cells loaded with oleic acid
Inconclusive results are not listed.
Task for the reader: assign each of the following molecules its reported max response.
# output: numeric value plus its unit

Check out these entries, answers already filled in.
{"MOL SMILES": "CCNc1ncc2nc(-c3cc(F)cc(F)c3)c(=O)n(C[C@H]3CCCO3)c2n1", "max response": "19%"}
{"MOL SMILES": "Cn1cccc1C(=O)N1CCC[C@@]2(CCN(Cc3ccc(C#N)cc3)C2)C1", "max response": "16.5%"}
{"MOL SMILES": "Cc1noc(C)c1C(=O)N1CCC2(CCN(Cc3ccc(C#N)cc3)CC2)CC1", "max response": "10.9%"}
{"MOL SMILES": "O=c1c(-c2cccs2)nc2cnc(N3CCOCC3)nc2n1-c1ccccc1", "max response": "-6.13%"}

Items follow; give max response for each.
1. O=C(c1csnn1)N1CCC2(CC1)CN(C(c1ccccc1)c1ccccc1)C2
2. COc1cccc(Cn2c(=O)c(-c3cccc(C#N)c3)nc3cnc(N4CCN(C)CC4)nc32)c1
3. CN1CCN(c2ncc3ncc(=O)n(CCC#N)c3n2)CC1

Found:
24.2%
24.1%
10.7%

max response measured on "CC(=O)NCCNc1ncncc1-c1ccccc1C" = 23%
